Tested on: HDQ-P1 (Breast Carcinoma);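 note: after 72 h of two-drug dosing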
Assay: Bliss excess, mean over the matrix (fraction); higher = more synergy
Kindly supply the reported Bliss excess values for the records listed here.
Provide a numeric answer; units are not to be included.

-- ask Can you share its Bliss excess? I mean this molecule: CCc1c2c(nc3ccc(O)cc13)-c1cc3c(c(=O)n1C2)COC(=O)[C@]3(O)CC [SN-38] + CN(C)CCCOc1ccc(-c2ccc3ncc4c(c3c2)n(C2CCOCC2)c(=O)n4C)cn1 [AZD0156] (first compound max 0.3 µM, 7x7, partner max 1 µM)
-- reply 0.0065

-- ask Can you share its Bliss excess? I mean this molecule: C=CCn1c(=O)c2cnc(Nc3ccc(N4CCN(C)CC4)cc3)nc2n1-c1cccc(C(C)(C)O)n1 [AZD1775] + O=C(c1cc(Cc2n[nH]c(=O)c3ccccc23)ccc1F)N1CCN(C(=O)C2CC2)CC1 [Olaparib] (first compound max 1 µM, partner max 10 µM)
-- reply -0.0441

-- ask Can you share its Bliss excess? I mean this molecule: CC1(C)CCC(CN2CCN(c3ccc(C(=O)NS(=O)(=O)c4ccc(NCC5CCOCC5)c([N+](=O)[O-])c4)c(Oc4cnc5[nH]ccc5c4)c3)CC2)=C(c2ccc(Cl)cc2)C1 [Venetoclax] + CN(C)CCCOc1ccc(-c2ccc3ncc4c(c3c2)n(C2CCOCC2)c(=O)n4C)cn1 [AZD0156] (first compound max 1 µM, 7x7, partner max 1 µM)
-- reply -0.0292
